Listing of recorded viability, T/C by entry.
# Test system: 941728-121-R-J1-PDC complex spheroid viability
# Measurement notes: Anticancer human tumor 941728-121-R-J1-PDC patient-derived lung adenocarcinoma cell line growth inhibition [RAS]
# Experimental setup: second compound 0.3 µM; first compound 0.1 µM; active compounds read low
API: value field is a number in %; no unit string.

Some entries whose results are on file:
>  <Compound>
CC(=O)OC12COC1CC(O)C1(C)C(=O)C(O)C3=C(C)C(OC(=O)C(O)C(NC(=O)OC(C)(C)C)c4ccccc4)CC(O)(C(OC(=O)c4ccccc4)C21)C3(C)C (stereo not given) + CCn1c(-c2cc(N3CCN(C)CC3)cnc2C(C)OC)c2c3cc(ccc31)-c1csc(n1)CC(NC(=O)C1CC1C)C(=O)N1CCCC(N1)C(=O)OCC(C)(C)C2

>  <Metric name>
viability, T/C

>  <Reported measurement>
9.25

$$$$
>  <Compound>
C=CC(=O)Nc1cc(Nc2nccc(-c3cn(C)c4ccccc34)n2)c(OC)cc1N(C)CCN(C)C + CCn1c(-c2cc(N3CCN(C)CC3)cnc2C(C)OC)c2c3cc(ccc31)-c1csc(n1)CC(NC(=O)C1CC1C)C(=O)N1CCCC(N1)C(=O)OCC(C)(C)C2

>  <Metric name>
viability, T/C

>  <Reported measurement>
12.4

$$$$
>  <Compound>
C[C@@H](NC(=O)c1ncnc(N)c1Cl)c1ncc(C(=O)Nc2cc(C(F)(F)F)c(Cl)cn2)s1 + CCn1c(-c2cc(N3CCN(C)CC3)cnc2C(C)OC)c2c3cc(ccc31)-c1csc(n1)CC(NC(=O)C1CC1C)C(=O)N1CCCC(N1)C(=O)OCC(C)(C)C2

>  <Metric name>
viability, T/C

>  <Reported measurement>
13.7

$$$$
>  <Compound>
CCC(CC)c1cc(NC2CCC(N)C2)n2nccc2n1 (stereo not given) + CCn1c(-c2cc(N3CCN(C)CC3)cnc2C(C)OC)c2c3cc(ccc31)-c1csc(n1)CC(NC(=O)C1CC1C)C(=O)N1CCCC(N1)C(=O)OCC(C)(C)C2

>  <Metric name>
viability, T/C

>  <Reported measurement>
15.2

$$$$
>  <Compound>
CCN1CCN(Cc2ccc(Nc3ncc(F)c(-c4cc(F)c5nc(C)n(C(C)C)c5c4)n3)nc2)CC1 + CCn1c(-c2cc(N3CCN(C)CC3)cnc2C(C)OC)c2c3cc(ccc31)-c1csc(n1)CC(NC(=O)C1CC1C)C(=O)N1CCCC(N1)C(=O)OCC(C)(C)C2

>  <Metric name>
viability, T/C

>  <Reported measurement>
8.41

$$$$

QUERY: Which viability, T/C value is on record for C[C@@H](NC(=O)c1ncnc(N)c1Cl)c1ncc(C(=O)Nc2cc(C(F)(F)F)c(Cl)cn2)s1 + CCn1c(-c2cccnc2C(C)OC)c2c3cc(ccc31)N1CCOC(CC(NC(=O)C(C(C)C)N(C)C(=O)C3(F)CCN(C(=O)C#CC(C)(C)N(C)C)CC3)C(=O)N3CCCC(N3)C(=O)OCC(C)(C)C2)C1 ?
RESULT: 26

QUERY: Which viability, T/C value is on record for C=CC(=O)N1CCN(c2nc(OCC3CCCN3C)nc3c(F)c(-c4nc(N)cc(C)c4C(F)(F)F)c(Cl)cc23)C(C)C1 (stereo not given) + CCn1c(-c2cc(N3CCN(C)CC3)cnc2C(C)OC)c2c3cc(ccc31)-c1csc(n1)CC(NC(=O)C1CC1C)C(=O)N1CCCC(N1)C(=O)OCC(C)(C)C2 ?
RESULT: 14.5

QUERY: Which viability, T/C value is on record for Nc1ccn(C2OC(CO)C(O)C2(F)F)c(=O)n1 (stereo not given) + CCn1c(-c2cc(N3CCN(C)CC3)cnc2C(C)OC)c2c3cc(ccc31)-c1csc(n1)CC(NC(=O)C1CC1C)C(=O)N1CCCC(N1)C(=O)OCC(C)(C)C2 ?
RESULT: 10.4

###

# Test system: 941728-121-R-J1-PDC complex spheroid viability
# Measurement notes: Anticancer human tumor 941728-121-R-J1-PDC cell line growth inhibition [RAS];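 note: spheroids exposed to compounds for 7 days before readout; 100% = DMSO vehicle control viability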
# Experimental setup: second compound 0.1 µM; first compound 0.0316 µM; active compounds read low
Metric name: viability, T/C

>  <Compound>
CC1(O)CCCC1n1c(=O)c(C(F)F)cc2cnc(NC3CCN(S(C)(=O)=O)CC3)nc21 (stereo not given) + C=CC(=O)N1CCN(c2nc(OCC3CCCN3C)nc3c(F)c(-c4nc(N)cc(C)c4C(F)(F)F)c(Cl)cc23)C(C)C1

>  <Reported measurement>
20.1%

$$$$
>  <Compound>
CC(Nc1ccc2c(c1)OCCn1cc(N3C(=O)OCC3C(F)F)nc1-2)C(N)=O (stereo not given) + C=CC(=O)N1CCN(c2nc(OCC3CCCN3C)nc3c(F)c(-c4nc(N)cc(C)c4C(F)(F)F)c(Cl)cc23)C(C)C1

>  <Reported measurement>
18.3%

$$$$
>  <Compound>
CC1(O)CCCC1n1c(=O)c(C(F)F)cc2cnc(NC3CCN(S(C)(=O)=O)CC3)nc21 (stereo not given) + C#Cc1c(F)ccc2cc(O)cc(-c3ncc4c(N5CC6CCC(C5)N6)nc(OCC56CCCN5CC(F)C6)nc4c3F)c12

>  <Reported measurement>
69.4%

$$$$
>  <Compound>
O=C(c1ccc(F)c(F)c1Nc1ccc(I)cc1F)N1CC(O)([C@@H]2CCCCN2)C1 + C=CC(=O)N1CCN(c2nc(OCC3CCCN3C)nc3c(F)c(-c4nc(N)cc(C)c4C(F)(F)F)c(Cl)cc23)C(C)C1

>  <Reported measurement>
14.5%

$$$$

Query compound follows.
QUERY: Request body: readout viability, T/C, system 941728-121-R-J1-PDC complex spheroid viability, query NC1c2ccccc2OC12CCN(c1cnc3c(N4CCCc5ncccc54)n[nH]c3n1)CC2 (stereo not given) + C=CC(=O)N1CCN(c2nc(OCC3CCCN3C)nc3c(F)c(-c4nc(N)cc(C)c4C(F)(F)F)c(Cl)cc23)C(C)C1 . Return the value.
RESULT: 15%

###

# System: 941728-121-R-J1-PDC complex spheroid viability
# Measurement notes: Anticancer human tumor 941728-121-R-J1-PDC cell line growth inhibition [RAS];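 note: spheroids exposed to compounds for 7 days before readout; 100% = DMSO vehicle control viability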
# Experimental setup: second compound 0.03 µM; first compound 0.0316 µM; active compounds read low
# From the text: RAS pathway inhibitors in Combinations in Complex Spheroids A high-throughput screen of multi-cell type tumor spheroids was designed to identify active combinations of RAS pathway inhibitors and targeted small molecules. Complex spheroids include a stromal component modeled by human endothelial cells (HUVEC) and fibroblasts modeled by human mesenchymal stem cells (MSCs). […] Compounds. […] If the clinical Cmax for an agent had not been determined, the highest concentration tested was 10 microM. […]
Metric name: viability, T/C (%)
API: value field is a number in %; no unit string.

>  <Molecule>
CC(Nc1ccc2c(c1)OCCn1cc(N3C(=O)OCC3C(F)F)nc1-2)C(N)=O (configuration not stated) + CCn1c(-c2cccnc2C(C)OC)c2c3cc(ccc31)N1CCOC(CC(NC(=O)C(C(C)C)N(C)C(=O)C3(F)CCN(C(=O)C#CC(C)(C)N(C)C)CC3)C(=O)N3CCCC(N3)C(=O)OCC(C)(C)C2)C1

>  <viability, T/C, %>
19.8

$$$$
>  <Molecule>
CC1(O)CCCC1n1c(=O)c(C(F)F)cc2cnc(NC3CCN(S(C)(=O)=O)CC3)nc21 (configuration not stated) + CCn1c(-c2cc(N3CCN(C)CC3)cnc2C(C)OC)c2c3cc(ccc31)-c1csc(n1)CC(NC(=O)C1CC1C)C(=O)N1CCCC(N1)C(=O)OCC(C)(C)C2

>  <viability, T/C, %>
13.4

$$$$
>  <Molecule>
C=CC(=O)N1CCN(c2nc(OCC3CCCN3C)nc3c(F)c(-c4nc(N)cc(C)c4C(F)(F)F)c(Cl)cc23)C(C)C1 (configuration not stated) + CCn1c(-c2cccnc2C(C)OC)c2c3cc(ccc31)N1CCOC(CC(NC(=O)C(C(C)C)N(C)C(=O)C3(F)CCN(C(=O)C#CC(C)(C)N(C)C)CC3)C(=O)N3CCCC(N3)C(=O)OCC(C)(C)C2)C1

>  <viability, T/C, %>
25.3

$$$$
>  <Molecule>
Cc1nc(N2CCC3(CC2)COC(C)C3N)c(CO)nc1Sc1ccnc(N)c1Cl (configuration not stated) + CCn1c(-c2cccnc2C(C)OC)c2c3cc(ccc31)N1CCOC(CC(NC(=O)C(C(C)C)N(C)C(=O)C3(F)CCN(C(=O)C#CC(C)(C)N(C)C)CC3)C(=O)N3CCCC(N3)C(=O)OCC(C)(C)C2)C1

>  <viability, T/C, %>
19.7

$$$$
>  <Molecule>
CCN1CCN(Cc2ccc(Nc3ncc(F)c(-c4cc(F)c5nc(C)n(C(C)C)c5c4)n3)nc2)CC1 + CCn1c(-c2cccnc2C(C)OC)c2c3cc(ccc31)N1CCOC(CC(NC(=O)C(C(C)C)N(C)C(=O)C3(F)CCN(C(=O)C#CC(C)(C)N(C)C)CC3)C(=O)N3CCCC(N3)C(=O)OCC(C)(C)C2)C1

>  <viability, T/C, %>
18

$$$$
>  <Molecule>
CC(=O)OC12COC1CC(O)C1(C)C(=O)C(O)C3=C(C)C(OC(=O)C(O)C(NC(=O)OC(C)(C)C)c4ccccc4)CC(O)(C(OC(=O)c4ccccc4)C21)C3(C)C (configuration not stated) + CCn1c(-c2cc(N3CCN(C)CC3)cnc2C(C)OC)c2c3cc(ccc31)-c1csc(n1)CC(NC(=O)C1CC1C)C(=O)N1CCCC(N1)C(=O)OCC(C)(C)C2

>  <viability, T/C, %>
10.2

$$$$

Query molecule follows.
QUERY: Which viability, T/C value is on record for C=CC(=O)Nc1cc(Nc2nccc(-c3cn(C)c4ccccc34)n2)c(OC)cc1N(C)CCN(C)C + CCn1c(-c2cc(N3CCN(C)CC3)cnc2C(C)OC)c2c3cc(ccc31)-c1csc(n1)CC(NC(=O)C1CC1C)C(=O)N1CCCC(N1)C(=O)OCC(C)(C)C2 ?
RESULT: 15.7
